- TARGET OF ASSAY: T1, amino acid residues 26-148 of human ANGPTL4 fused in-line to mouse IgG2a (hANGPTL4-mFc) (human)
- T1 construct: contains the N-terminal coiled-coil region
- T1 chain: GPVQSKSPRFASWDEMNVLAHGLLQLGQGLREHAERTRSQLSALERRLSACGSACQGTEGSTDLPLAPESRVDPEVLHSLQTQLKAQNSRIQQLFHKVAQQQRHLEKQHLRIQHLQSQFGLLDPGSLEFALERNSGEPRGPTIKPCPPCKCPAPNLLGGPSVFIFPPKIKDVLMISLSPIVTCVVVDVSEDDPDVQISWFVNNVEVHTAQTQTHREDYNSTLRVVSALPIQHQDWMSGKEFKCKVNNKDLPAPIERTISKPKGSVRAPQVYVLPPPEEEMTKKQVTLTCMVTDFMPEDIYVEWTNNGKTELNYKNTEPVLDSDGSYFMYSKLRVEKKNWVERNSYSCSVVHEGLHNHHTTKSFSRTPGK
- PROTOCOL TEXT: SPR (Biacore), 25° C., pH 7.2, antigen captured by anti-mFc
pKd: −log10 of the molar value.

[
  {
    "BINDER": "H1H284P (antibody, V domains shown, also called entire H1H284 mAb; Full mAb) VH: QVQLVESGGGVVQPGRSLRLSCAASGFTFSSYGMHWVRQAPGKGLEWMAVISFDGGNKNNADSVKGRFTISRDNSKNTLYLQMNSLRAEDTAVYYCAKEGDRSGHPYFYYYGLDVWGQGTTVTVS VL: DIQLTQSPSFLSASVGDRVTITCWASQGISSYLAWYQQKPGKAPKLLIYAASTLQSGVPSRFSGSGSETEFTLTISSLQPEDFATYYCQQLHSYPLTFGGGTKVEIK",
    "pKd": 9.71
  }
]
